endpoint: logP
Note: the reply should be a number with no unit written.

Past entries and their recorded results:
[
  {
    "chemical-string": "O=[N+]([O-])C=Cc1cccc(O)c1",
    "observed-measurement": 2.07
  },
  {
    "chemical-string": "O=[N+]([O-])/C=C/c1ccccc1[N+](=O)[O-]",
    "observed-measurement": 1.8
  },
  {
    "chemical-string": "CC(=O)NC1=CC(=O)c2ccccc2C1=O",
    "observed-measurement": 1.29
  },
  {
    "chemical-string": "COc1cccc(/C=C/[N+](=O)[O-])c1",
    "observed-measurement": 2.3
  },
  {
    "chemical-string": "C/C(=C\\c1ccccc1)[N+](=O)[O-]",
    "observed-measurement": 2.52
  },
  {
    "chemical-string": "O=[N+]([O-])/C=C/c1ccccc1Cl",
    "observed-measurement": 2.85
  },
  {
    "chemical-string": "O=[N+]([O-])C=Cc1cc([N+](=O)[O-])ccc1Cl",
    "observed-measurement": 2.23
  }
]

In the following, a different molecule is considered.
QUERY: Return value of logP for input CCCCNC1=CC(=O)c2ccccc2C1=O , no commentary.
RESULT: 3.11

Value source: the SangsterLogP compilation
